src = PubChem BioAssay AID743269

Tested on: HIV-1 integrase (with human LEDGF/p75)
assay.notes: blockers of LEDGF/p75-dependent integrase strand transfer – biochemical, TR-FRET, high throughput, primary screen (AID 743269);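 further: signal is the Cy5 over europium emission ratio at 671 and 618 nm; 0% = plate median of compound wells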
conditions.used: TR-FRET IN-LEDGF/p75 DNA integration, Eu/Cy5; at 3.7 µM; stronger effect = higher value
Hit rate of the full screen: of about 370,000 compounds, about 2,400 (0.65%) were called active. The sample as a whole holds a higher share of actives than the screen did.
parameter.measured: inhibition (%)
Field format: number, assumed %, no unit text.

*Q* Fill blank: measured inhibition of the compound CCC(NC(=O)C1C2C=CC3(CN(Cc4ccccc4)C(=O)C13)O2)c1ccccc1 (stereo unspecified) is ____.
*A* -1.5

*Q* Fill blank: measured inhibition of the compound Cc1ccc(-c2cnc(NC(=O)CCC(=O)N(C)Cc3ccccc3)n2C)cc1 is ____.
*A* 38.1

*Q* Fill blank: measured inhibition of the compound Cc1ccc(C2=CCN(C)C(=O)N2c2ccc(Cl)cc2)cc1 is ____.
*A* 0.69

*Q* Fill blank: measured inhibition of the compound N#CCC[C@H]1CC[C@]2(CCCN(Cc3ccc(Cl)cc3)C2)O1 is ____.
*A* 0.5

*Q* Fill blank: measured inhibition of the compound C=CCn1c(SCC(=O)CC(=O)OCC)nc2cc(C(=O)N3CCC(C(N)=O)CC3)ccc2c1=O is ____.
*A* -1.71

*Q* Fill blank: measured inhibition of the compound C[C@H]1[C@H](NC(=O)c2cccc(N(C)C)c2)CC[C@@]23CCCN2C(=O)CCC[C@@H]13 is ____.
*A* -2.54

*Q* Fill blank: measured inhibition of the compound CCCCCCN1CCS(=O)(=O)N(Cc2ccc(C(F)(F)F)cc2)C(C(=O)OC)C1 (stereo unspecified) is ____.
*A* -2.95

*Q* Fill blank: measured inhibition of the compound Cc1ccc(C(=O)N(Cc2ccccn2)CC2CCCO2)cc1 (stereo unspecified) is ____.
*A* -1.5

*Q* Fill blank: measured inhibition of the compound O=C(OCC#CCSc1nnc(-c2ccco2)o1)c1ccc(F)cc1 is ____.
*A* -2.28

*Q* Fill blank: measured inhibition of the compound CCn1nc(C)c(CN2CCN(Cc3ccc(OC)c(C)c3C)C(CCO)C2)c1C (stereo unspecified) is ____.
*A* 13.4

*Q* Fill blank: measured inhibition of the compound O=C(CCl)NC1CCCCN(Cc2cccc(C(F)(F)F)c2)C1=O (stereo unspecified) is ____.
*A* 0.3

*Q* Fill blank: measured inhibition of the compound COC(=O)[C@H](C(C)C)N1CCc2nnn(Cc3ccc(C)cc3)c2-c2ccccc2S1(=O)=O is ____.
*A* 0.15

*Q* Fill blank: measured inhibition of the compound C=CCn1c2ccccc2c2nnc(SCc3[nH]c(=O)[nH]c3C(=O)CCCCC(=O)OCC)nc21 is ____.
*A* 43.2

*Q* Fill blank: measured inhibition of the compound COc1ccnc(C(=O)N2CCC(Oc3cccnc3)CC2)c1 is ____.
*A* -0.27

*Q* Fill blank: measured inhibition of the compound COc1ccc(C2CC=C(C(=O)O)C(c3ccccc3F)N2S(=O)(=O)c2ccc(C)cc2)cc1OC (stereo unspecified) is ____.
*A* -2.7

*Q* Fill blank: measured inhibition of the compound COc1cccc(CNC(=O)C2CCCN(c3nc4ccccc4o3)C2)c1OC (stereo unspecified) is ____.
*A* 3.24

*Q* Fill blank: measured inhibition of the compound COC(=O)[C@]1(C#N)CC(=O)N(CC2CCCCC2)[C@@H]1c1ccccc1 is ____.
*A* 8.17

*Q* Fill blank: measured inhibition of the compound CC(=O)Nc1nc2ncccn2c1-c1ccc(C(F)(F)F)cc1 is ____.
*A* 4.33

*Q* Fill blank: measured inhibition of the compound C=CCn1c2ccccc2c2nnc(SC(CC)C(=O)Nc3nc(C)c(C(=O)OCC)s3)nc21 (stereo unspecified) is ____.
*A* -2.02

*Q* Fill blank: measured inhibition of the compound COc1c(O)cc2oc(-c3ccc(O)c(O)c3)cc(=O)c2c1O is ____.
*A* 34.7

*Q* Fill blank: measured inhibition of the compound CCOC(=O)[C@]12CCCCC/C=C\1N(Cc1ccc(OC)cc1)C(=O)[C@H]2CC(=O)N1CCOCC1 is ____.
*A* -1.27
